Reference source: patent US20260242395A1

Each record here notes measured IC50.
- assayTarget: CDK7/CyclinH/MAT1 (Homo sapiens)
- Sequence (P50613 whole entry): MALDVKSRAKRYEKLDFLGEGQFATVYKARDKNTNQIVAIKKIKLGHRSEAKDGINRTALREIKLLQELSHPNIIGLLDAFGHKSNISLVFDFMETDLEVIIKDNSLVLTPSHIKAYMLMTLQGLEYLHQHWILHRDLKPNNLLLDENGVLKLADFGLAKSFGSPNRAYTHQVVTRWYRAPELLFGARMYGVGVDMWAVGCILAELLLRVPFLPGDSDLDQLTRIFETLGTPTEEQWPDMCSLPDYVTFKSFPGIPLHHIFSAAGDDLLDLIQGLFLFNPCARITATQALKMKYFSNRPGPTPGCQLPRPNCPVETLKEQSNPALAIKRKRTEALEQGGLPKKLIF
- Sequence (P51946 whole entry partner): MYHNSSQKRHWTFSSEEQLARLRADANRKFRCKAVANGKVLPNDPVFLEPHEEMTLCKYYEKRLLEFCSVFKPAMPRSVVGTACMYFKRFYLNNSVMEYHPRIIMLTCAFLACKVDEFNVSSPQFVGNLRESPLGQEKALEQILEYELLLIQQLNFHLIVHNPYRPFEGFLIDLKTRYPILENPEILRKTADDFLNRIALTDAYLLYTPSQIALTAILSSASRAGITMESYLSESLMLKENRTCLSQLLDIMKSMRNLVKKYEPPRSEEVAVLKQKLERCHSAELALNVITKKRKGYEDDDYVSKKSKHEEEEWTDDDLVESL
- Sequence (P51948 whole entry partner): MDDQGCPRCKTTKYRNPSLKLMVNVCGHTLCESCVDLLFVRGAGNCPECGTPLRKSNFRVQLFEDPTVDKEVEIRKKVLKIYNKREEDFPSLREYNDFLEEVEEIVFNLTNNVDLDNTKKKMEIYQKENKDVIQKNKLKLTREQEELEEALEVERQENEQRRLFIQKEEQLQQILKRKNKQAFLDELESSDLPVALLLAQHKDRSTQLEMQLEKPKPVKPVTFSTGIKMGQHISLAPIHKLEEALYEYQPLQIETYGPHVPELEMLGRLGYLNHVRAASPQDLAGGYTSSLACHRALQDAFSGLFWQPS
- methodDescription: CDK7/CyclinH/MAT1 kinase inhibitory activity (Caliper mobility shift)
- details: enzyme 12.5 nM, ATP 70 μM, 28° C. 30 min; read-out: CDK7/Cyclin H/MAT1 IC50

Would you please look over these solved cases?
CC(C)(O)c1cnc2c(F)cc(-c3nc(N[C@@H]4CCOC[C@H]4O)ncc3C#N)cc2c1Cl = ≥ 1000 nM
CC(C)(N)c1cnc2c(F)cc(-c3nc(N[C@@H]4CCOC[C@H]4O)ncc3Cl)cc2c1 = 100 to 1000 nM
Cc1nc2c(F)cc(-c3nc(N[C@@H]4CCOC[C@H]4O)ncc3Cl)cc2c(Cl)c1C(C)O (single isomer, unassigned) [Example 35a] = ≥ 1000 nM

Need IC50 of "Cc1nc2c(F)cc(-c3nc(N[C@@H]4CCOC[C@H]4O)ncc3Cl)cc2cc1C(C)(C)O" , thanks.
≥ 1000 nM

// repeat for CNC(C)c1cc2cc(-c3nc(N[C@@H]4CCOC[C@H]4O)ncc3Cl)cc(F)c2nc1C (single isomer, unassigned) [Example 45a] and report
≥ 1000 nM

// repeat for "O[C@@H]1COCC[C@H]1Nc1cc(-c2cc(F)c3ncc4c(c3c2)CNCC4)c(Cl)cn1" and report
10 to 100 nM
